- Tested on: Helminthosporium sp.
- assay-remarks: Fungal growth inhibition zone assay, Helminthosporium sp.
- Assay type: cell-based
- measurement-context: amount added 1 μg

# compound, study-system, result-units, width of inhibition zone
measured = [
    ("CCCCCCC1=CC(=C(Br)Br)OC1=O", "Helminthosporium sp.", "mm", 0),
    ("C[C@@H]1[C@H](O)[C@@H](C)/C=C/C=C/C=C/C=C/C=C/C=C/C=C/[C@H](O[C@@H]2O[C@H](C)[C@@H](O)[C@H](N)[C@@H]2O)C[C@@H]2O[C@](O)(C[C@@H](O)C[C@@H](O)[C@H](O)CC[C@@H](O)C[C@@H](O)CC(=O)O[C@H]1C)C[C@H](O)[C@H]2C(=O)O [Amphotericin B, reference compound]", "Helminthosporium sp.", "mm", 6),
    ("CCCCC1=CC(=C(Br)Br)OC1=O", "Helminthosporium sp.", "mm", 0),
    ("CCCCC1=C(Br)C(=CBr)OC1=O", "Helminthosporium sp.", "mm", 0),
    ("CCCCC1=C(Br)C(=C(Br)Br)OC1=O", "Helminthosporium sp.", "mm", 0),
    ("CCCC(OC(C)=O)C1=C(Br)C(=CBr)OC1=O (stereo not shown)", "Helminthosporium sp.", "mm", 0),
]

---

- System: Candida albicans
- assay-remarks: Fungal growth inhibition zone assay, Candida albicans
- Assay type: cell-based
- measurement-context: amount added 100 μg
measured-attribute: width of inhibition zone

# molecule, result
records = [
    ("CCCC(OC(C)=O)C1=C(Br)C(=CBr)OC1=O (stereo not shown)", "2-3 mm"),
    ("CCCCC1=C(Br)C(=CBr)OC1=O", "2-3 mm"),
    ("CCCC(OC(C)=O)C1=C(Br)C(=CI)OC1=O (stereo not shown)", "3-8 mm"),
    ("CCCCC1=C(Br)C(=C(Br)Br)OC1=O", "1-2 mm"),
]
